Assay: MM1S cell viability effects, profiling panel, calcein-AM fluorescence, 48 h, basal (AID 1165);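 also: viability of MM1S multiple myeloma cells under basal unstimulated conditions; test concentration not given here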
Settings: higher = more signal
molecules and their reported z-score

| molecule | z-score |
| --- | --- |
| COC(=O)c1c2oc(c1C(=O)OC)C(=O)N(Cc1ccccc1)Cc1cn(nn1)C[C@H](Cc1ccccc1)NC(=O)N[C@H](CO)CC2 | 1.18 |
| C=C(C(=O)CC[C@@H](OC(C)=O)c1ccc(CO)o1)C(C)C | -1.39 |
| C=CCN1C(=O)[C@@]2(CCS(=O)(=O)c3ccccc3)N=C(c3ccc(OCCCO)cc3)O[C@H]2c2ccccc21 | -0.786 |
| COC(=O)C1=CC(CCCO)=CC(C2CC2)N(C)C=C1C(=O)OC (stereo not drawn) | 0.828 |
| COc1ccccc1CN1C(=O)c2ccccc2[C@](Cc2ccccc2I)(C(=O)NCC(F)(F)F)[C@@H]1c1ccc(CO)cc1 | -2.39 |
| COc1ccccc1CN1C(=O)c2ccccc2[C@@]2(Cc3ccccc3N(CC(F)(F)F)C2=O)[C@@H]1c1ccc(CO)cc1 | 0.291 |
| O=C1NC(=O)C2C1C=CC(C(O)CCc1ccccc1)N2Nc1ccc(Cl)cc1Cl (stereo not drawn) | -2.19 |
| CCCNC(=O)[C@@H]1c2ccccc2C(=O)N(C(C)C)[C@H]1c1ccc(CO)cc1 | 0.92 |

----------
Molecular target: Albumin (Bos taurus) (UniProt P02769)
Sequence (P02769 whole entry, looked up): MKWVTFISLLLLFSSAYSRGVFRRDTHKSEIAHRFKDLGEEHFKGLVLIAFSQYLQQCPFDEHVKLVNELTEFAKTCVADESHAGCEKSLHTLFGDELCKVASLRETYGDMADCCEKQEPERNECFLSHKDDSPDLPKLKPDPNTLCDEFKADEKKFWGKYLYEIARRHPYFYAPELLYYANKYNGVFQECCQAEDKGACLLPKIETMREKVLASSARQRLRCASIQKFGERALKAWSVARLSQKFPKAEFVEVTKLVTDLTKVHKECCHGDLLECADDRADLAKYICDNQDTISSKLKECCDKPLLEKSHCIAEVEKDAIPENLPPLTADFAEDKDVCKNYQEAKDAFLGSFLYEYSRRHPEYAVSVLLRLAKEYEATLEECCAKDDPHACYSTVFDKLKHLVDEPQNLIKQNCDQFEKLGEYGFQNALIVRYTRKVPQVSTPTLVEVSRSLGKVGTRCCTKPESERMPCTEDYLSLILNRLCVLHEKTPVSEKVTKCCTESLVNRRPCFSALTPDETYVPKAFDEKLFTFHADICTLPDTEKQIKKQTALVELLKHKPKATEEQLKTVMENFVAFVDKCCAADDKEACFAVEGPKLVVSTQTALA
Experiment: bovine serum albumin binders on microarray, profiling panel, artefact control for SMM control protein annotation, biochemical, small-molecule microarray, Alexa647 label, 635/667 nm fluorescence (AID 1118);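 also: score merges 667 nm emission intensity and signal-to-noise per printed compound spot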
Conditions: BSA-A647 binding, fluorescence 635 nm, higher = more signal
Could you please classify the records by composite z-score using these ranges: LOW (below 0.07), MID (0.07 to below 0.6), HIGH (0.6 or more)

| compound | target of assay | label value |
| --- | --- | --- |
| COc1cc2c(cc1OC)CN(C(=O)[C@@H]1[C@H]3C(=O)O[C@H](c4ccccc4)[C@H](c4ccccc4)N3[C@H](c3ccc(OCCO)cc3)[C@@]13C(=O)Nc1ccc(C#CC4(O)CCCCCC4)cc13)CC2 | Albumin (Bos taurus) (UniProt P02769) | HIGH |
| COC(=O)C(CC#Cc1ccc2c(c1)[C@]1(C(=O)N2)[C@H](c2ccccc2OCCO)N2[C@H](c3ccccc3)[C@H](c3ccccc3)OC(=O)[C@H]2[C@@H]1C(=O)NC[C@H](O)c1ccccc1)C(=O)OC | Albumin (Bos taurus) (UniProt P02769) | MID |
| O=C1N(Cc2ccccc2)Cc2ccccc2[C@@H]2OC(c3ccc(OCCCO)cc3)=N[C@]12CCS(=O)(=O)c1ccccc1 | Albumin (Bos taurus) (UniProt P02769) | LOW |
| CCC(CC)C(O)C1C=CC2C(=O)N(c3ccccc3)C(=O)C2N1Nc1ccc(C(C)C)cc1 (centres undefined) | Albumin (Bos taurus) (UniProt P02769) | HIGH |
| COc1ccc([Si](C)(C)[C@@H]2[C@@H](CCO)O[C@]3(C(=O)N(Cc4ccc(N5CCCCC5=O)cc4)c4ccccc43)[C@H]2C)cc1 | Albumin (Bos taurus) (UniProt P02769) | MID |
| COC(=O)c1c2oc(c1C(=O)OC)C(=O)N(Cc1ccccc1)Cc1cn(nn1)C[C@H](Cc1ccccc1)NC(=O)N[C@H](CO)CC2 | Albumin (Bos taurus) (UniProt P02769) | HIGH |
| COC(=O)c1cn(C[C@@H](Cc2ccccc2)NC(=O)N[C@H](CO)CCc2oc(C(C)=O)c(C(=O)OC)c2C(=O)OC)nn1 | Albumin (Bos taurus) (UniProt P02769) | LOW |
| COC(=O)CCCCCCC(=O)Nc1ccc(NC(=O)CCCC[P+](c2ccccc2)(c2ccccc2)c2ccccc2)cc1 | Albumin (Bos taurus) (UniProt P02769) | LOW |
| [N-]=[N+]=NCc1ccccc1C[C@@]1(C(=O)N2CCOCC2)N=C(c2ccc(OCCCO)cc2)O[C@@H]1c1ccccc1 | Albumin (Bos taurus) (UniProt P02769) | HIGH |
| C=CCC(OC(C)=O)[C@@H]1[C@@H](N(Cc2cccc3ccccc23)C(=O)Cc2ccc(F)cc2)c2cc(OCCCO)ccc2N1C(=O)c1ccc2ccccc2n1 (some centres undefined) | Albumin (Bos taurus) (UniProt P02769) | LOW |
| CC=CC(O)C1C=CC2C(=O)N(c3ccccc3)C(=O)C2N1Nc1ccccc1F (centres undefined) | Albumin (Bos taurus) (UniProt P02769) | MID |
